- Measurement Target: human histamine H4 receptor (Homo sapiens, UniProt Q9H3N8)
- Construct: cell membranes
- Sequence (Q9H3N8 whole entry): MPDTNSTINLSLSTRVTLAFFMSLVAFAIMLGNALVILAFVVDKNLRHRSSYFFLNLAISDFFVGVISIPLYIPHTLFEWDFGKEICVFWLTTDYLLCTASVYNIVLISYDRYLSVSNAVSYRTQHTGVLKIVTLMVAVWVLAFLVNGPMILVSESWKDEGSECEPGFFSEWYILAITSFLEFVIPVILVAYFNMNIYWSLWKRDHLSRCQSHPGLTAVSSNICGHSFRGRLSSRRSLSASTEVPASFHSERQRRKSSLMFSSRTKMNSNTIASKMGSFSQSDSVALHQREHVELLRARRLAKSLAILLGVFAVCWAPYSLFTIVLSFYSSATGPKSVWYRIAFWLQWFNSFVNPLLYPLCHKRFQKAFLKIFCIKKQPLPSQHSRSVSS
- Procedure Details: Binding Assay on Recombinant Human Histamine H4 Receptor
- Measurement Setup: competition binding vs 3H-histamine (5 nM, KD 5 nM), membranes of SK-N-MC or COS7 cells transfected with human H4R; Cheng-Prusoff; average of results obtained
Label Yes when Ki is strictly below 0.08 µM; at or above that, label No.

Could you please tell me whether Ki recorded for `CN1CCN(c2ncnc(-c3ccsc3)n2)CC1` is less than 0.08 µM? Yes

Same lookup for `CN1CCN(c2ncnc(-c3ccc(F)cc3Cl)n2)CC1` , please. No

Same lookup for `Cc1nc(-c2sccc2Br)nc(N2CCN(C)CC2)n1` , please. Yes

Same lookup for `CN1CCN(c2ccnc(-c3ccc(-c4cccs4)s3)c2)CC1` , please. No

Same lookup for `CN1CCN(c2ccnc(-c3csc(C#N)c3)c2)CC1` , please. No

Same lookup for `CN1CCN(c2ccnc(-c3cccc(Cl)c3Cl)c2)CC1` , please. No

Same lookup for `CN1CCN(c2ccnc(-c3cccc(O)c3)c2)CC1` , please. No

Same lookup for `CN1CCN(c2ncnc(-c3ccc(F)c(F)c3)n2)CC1` , please. Yes

Same lookup for `Cc1ccc(-c2cc(N3CCN(C)CC3)ccn2)cc1Cl` , please. Yes

Same lookup for `CN1CCN(c2ncnc(-c3sccc3Br)n2)CC1` , please. Yes

Same lookup for CN1CCC(N(C)c2ccnc(-c3ccsc3)c2)C1 (centres unmarked) , please. No

Same lookup for `CN1CCN(c2ncnc(-c3ccc(Cl)s3)n2)CC1` , please. Yes

Same lookup for `CN1CCN(c2ccnc(-c3ccco3)c2)CC1` , please. No

Same lookup for `CN1CCN(c2ncnc(-c3ccc(F)cc3)n2)CC1` , please. Yes

Same lookup for `CN1CCN(c2ncnc(-c3csc4ccccc34)n2)CC1` , please. No

Same lookup for `CN1CCN(c2ncnc(-c3ccc(F)cc3F)n2)CC1` , please. No

Same lookup for `CN1CCN(c2ncnc(-c3ccc([N+](=O)[O-])cc3)n2)CC1` , please. No

Same lookup for `CN1CCN(c2ccnc(-c3sccc3Cl)c2)CC1` , please. No

Same lookup for `Cc1nc(-c2cc(F)c(F)c(F)c2)nc(N2CCN(C)CC2)n1` , please. No

Same lookup for `CN1CCN(c2ncnc(-c3ccoc3)n2)CC1` , please. No

Same lookup for `CN1CCN(c2ncnc(-c3ccc(Br)s3)n2)CC1` , please. Yes

Same lookup for `CN1CCN(c2ncnc(-c3cccnc3)n2)CC1` , please. No

Same lookup for `CN1CCN(c2ccnc(-c3ccc(F)c(Cl)c3)c2)CC1` , please. No

Same lookup for `CN1CCN(c2ncnc(-c3cc4ccccc4s3)n2)CC1` , please. No

Same lookup for `CN1CCN(c2ncnc(-c3ccc(Cl)c(Cl)c3)n2)CC1` , please. Yes

Same lookup for `CN1CCN(c2ccnc(-c3cccc(-c4ccccc4)c3)c2)CC1` , please. Yes

Same lookup for `CN1CCN(c2ncnc(-c3ccc(-c4ccccc4)cc3)n2)CC1` , please. No

Same lookup for `CN1CCN(c2ncnc(-c3ccc(Cl)cc3)n2)CC1` , please. Yes

Same lookup for `COc1cscc1-c1ncnc(N2CCN(C)CC2)n1` , please. No

Same lookup for `Cc1ccc(-c2cc(N3CCN(C)CC3)ccn2)cc1` , please. No

Same lookup for `CN1CCN(c2ncnc(-c3ccccn3)n2)CC1` , please. No

Same lookup for `CN1CCN(c2ncnc(-c3ccccc3)n2)CC1` , please. No

Same lookup for `CN1CCN(c2ncnc(-c3cccc(-c4ccccc4)c3)n2)CC1` , please. No

Same lookup for `CN1CCN(c2ncnc(-c3cccc(C(F)(F)F)c3)n2)CC1` , please. Yes

Same lookup for `CN1CCN(c2ncnc(-c3cc(Cl)sc3Cl)n2)CC1` , please. No

Same lookup for `CN1CCCN(c2cc(-c3cccs3)ncn2)CC1` , please. No

Same lookup for `CN1CCN(c2ncnc(-c3cc(Cl)cs3)n2)CC1` , please. No

Same lookup for `CN1CCCN(c2ncnc(-c3sccc3Br)n2)CC1` , please. No

Same lookup for CN(C)C1CCN(c2ccnc(-c3ccsc3)c2)C1 (centres unmarked) , please. No

* * *

- Measurement Target: human histamine H4 receptor (Homo sapiens)
- Construct: cell membranes
- Procedure Details: Binding Assay on Recombinant Human Histamine H4 Receptor
- Measurement Setup: competition binding vs 3H-histamine (5 nM, KD 5 nM), membranes of SK-N-MC or COS7 cells transfected with human H4R; Cheng-Prusoff; average of results obtained
So basically every entry gets a class from its Ki, ranges being low band: < 50 nM; middle band: ≥ 50 nM and < 100 nM; high band: ≥ 100 nM

Please classify: CNC1CCN(c2ccnc(-c3ccsc3)c2)C1 (stereo not shown) high band

Same lookup for `Cc1ccc(F)cc1-c1ncnc(N2CCN(C)CC2)n1` , please. middle band

Same lookup for `CN1CCN(c2ncnc(-c3ccc(-c4ccccn4)s3)n2)CC1` , please. high band

Same lookup for `CN1CCN(c2ccnc(-c3ccoc3)c2)CC1` , please. low band

Same lookup for `CN1CCN(c2ccnc(-c3cccc(-c4ccc(C(=O)N5CCOCC5)cc4)c3)c2)CC1` , please. high band

Same lookup for `CN1CCN(c2ncnc(-c3cccs3)n2)CC1` , please. middle band

Same lookup for `CN1CCCN(c2ccnc(-c3ccsc3)c2)CC1` , please. high band

Same lookup for `CN1CCN(c2ncnc(-c3cccc(F)c3)n2)CC1` , please. middle band

Same lookup for `Cc1ccc(-c2ncnc(N3CCN(C)CC3)n2)cc1F` , please. low band

Same lookup for `Cc1ccc(-c2cc(N3CCN(C)CC3)ccn2)cc1F` , please. middle band

Same lookup for `CN1CCN(c2ncnc(-c3ccncc3)n2)CC1` , please. high band

Same lookup for `Cc1cc(-c2ncnc(N3CCN(C)CC3)n2)ccc1F` , please. high band

Same lookup for `CN1CCN(c2ncnc(-c3cccc(C#N)c3)n2)CC1` , please. high band

Same lookup for `CN1CCN(c2ncnc(-c3cccc4ccccc34)n2)CC1` , please. high band

Same lookup for `CN1CCN(c2ncnc(-c3sccc3Cl)n2)CC1` , please. low band

Same lookup for `CN1CCN(c2ncnc(-c3ccc(Br)cc3)n2)CC1` , please. low band

Same lookup for `CN1CCN(c2ccnc(-c3ccc(F)c(F)c3)c2)CC1` , please. middle band

Same lookup for `Cc1ccc(-c2ncnc(N3CCN(C)CC3)n2)cc1` , please. middle band

Same lookup for `CN1CCN(c2ncnc(-c3cc(Br)cs3)n2)CC1` , please. low band

Same lookup for `CN1CCN(c2ccnc(-c3ccsc3)c2)CC1` , please. low band

Same lookup for `CN(C)CCN(C)c1ccnc(-c2ccsc2)c1` , please. high band

* * *

Would you kindly list Ki for each of these compounds?
- Measurement Target: human histamine H4 receptor (Homo sapiens)
- Construct: cell membranes
- Procedure Details: Binding Assay on Recombinant Human Histamine H4 Receptor
- Measurement Setup: competition binding vs 3H-histamine (5 nM, KD 5 nM), membranes of SK-N-MC or COS7 cells transfected with human H4R; Cheng-Prusoff; average of results obtained
- Experimental: Binding Assay on Recombinant Human Histamine H4 Receptor SK-N-MC cells or COS7 cells were transiently transfected with pH4R and grown in 150 cm^2 tissue culture dishes. Cells were washed with saline solution, scraped with a cell scraper and collected by centrifugation (1000 rpm, 5 min). […] Filters were then dried, mixed with scintillant and counted for radioactivity. […]
Supply the numeric figure in nM, leaving out any unit text.

Provide the documented Ki with human histamine H4 receptor (Homo sapiens) as the system for Cc1ccsc1-c1ncnc(N2CCN(C)CC2)n1 [compound 140] 52

Same lookup for `CN1CCN(c2ncnc(-c3cc(F)c(F)c(F)c3)n2)CC1` , please. 7

Same lookup for `Cc1cc(-c2ncnc(N3CCN(C)CC3)n2)c(C(F)(F)F)o1` , please. 757

Same lookup for `Cc1cscc1-c1cc(N2CCN(C)CC2)ccn1` , please. 64
